- Tested on: Lefty1
- assay_protocol: Lefty1 protein binding to printed compounds – biochemical, small-molecule microarray, 635/667 nm fluorescence, primary screen (AID 1139)
- measurement_parameters: fluorescence 635/667, higher = more signal
Note to self: class labels come from recorded composite z-score, ranges listed here: 0: < -0.3; 1: ≥ -0.3 and < 0.3; 2: ≥ 0.3

Class? Entry: COc1ccc(C(=O)Nc2cccc(CN3C(=O)[C@]4(O[C@H](CCn5cc(CCO)nn5)[C@@H]([Si](C)(C)c5ccc(OC)cc5)[C@@H]4C)c4ccccc43)c2)cc1
2

Place this molecule in its band: COC(=O)C(CC#Cc1ccc2c(c1)[C@]1(C(=O)N2)[C@H](c2ccccc2OCCO)N2[C@H](c3ccccc3)[C@H](c3ccccc3)OC(=O)[C@H]2[C@@H]1C(N)=O)C(=O)OC
1

Please classify: CCCCN1CC=CC23O[C@@H]4/C=C\CCCOC(=O)C4[C@H]2C(=O)N(CCCCCO)[C@@H]3C1=O (stereo not given in full)
0

Class for CO[C@H]1O[C@H](CO)[C@@H](OC(=O)Nc2ccccc2-c2ccccc2)[C@H](OC(=O)Nc2ccccc2-c2ccccc2)[C@@H]1OC(=O)Nc1ccccc1-c1ccccc1 ?
2

Kindly identify the class of O=C1NC(=O)C2C1C=CC(C(O)c1ccc(I)cc1)N2Nc1ccccn1 (stereo not given) .
1

Kindly identify the class of CCCC(=O)N(CCc1c[nH]c2ccccc12)[C@@H]1CC(C(=O)NCCO)=C[C@H](Oc2c(I)cc(CO)cc2OC)[C@H]1O .
1

Where would CC=CC(O)C1C=CC2C(=O)N(C)C(=O)C2N1N(c1ccccc1)c1ccccc1 (stereo not given) land among the classes by reported composite z-score?
1

Tag the class for OB1C=CCC(CCc2ccccc2)O1 (stereo not given)
0

Quick check: band for O=C1[C@H]2C=C(Br)[C@H](C[C@@H]2OCCCCCCO)[C@@]12CO2
0

Classify this molecule: CCCCN1CC=CC23O[C@@H]4C=CCCOC(=O)C4[C@H]2C(=O)N(CCCCCO)[C@@H]3C1=O (stereo not given in full)
1

Field: class (composite z-score) — entry: [N-]=[N+]=Nc1ccccc1C[C@@]1(C(=O)N2CCCCC2)N=C(c2ccc(OCCCO)cc2)O[C@@H]1c1ccccc1N=[N+]=[N-]
1

Quick check: band for C=C(CCCC)/C(=C/C[C@H](OC(=O)c1ccncc1)c1ccc(OCCO)cc1)c1cc(C(=O)OC)ccc1OC
2

Class (by measured composite z-score) for O=C1O[C@H](c2ccccc2)[C@H](c2ccccc2)N2[C@H]1[C@@H](C(=O)NC[C@H](O)c1ccccc1)[C@]1(C(=O)Nc3ccccc31)[C@H]2c1ccc(O)cc1
2

GET /class?item= O=C1C2C=CC(C(O)c3ccc(-c4ccccc4)s3)N(Nc3ccccc3)C2C(=O)N1c1ccccc1 (stereo not given)
1

----------
Can you tell me z-score for the items I'm about to list?
- assay_protocol: budding yeast growth modifiers under rapamycin – strain BY4716, OD600, 96 h, primary screen (AID 1091); further: test concentration not given here
- measurement_parameters: S. cerevisiae BY4716 + rapamycin, higher = more signal, called active from +8 up or from −8 down
Could you respond with only the numeric value?

# lookup: z-score of O=C1O[C@@H](c2ccccc2)[C@@H](c2ccccc2)N2[C@@H](c3ccc(OCCO)cc3)[C@]3(C(=O)Nc4ccc(C#CC5=CCCCC5)cc43)[C@@H](C(=O)N3CCCCCCC3)[C@H]12
2.13

Endpoint output: z-score of COc1ccc([Si](C)(C)[C@H]2[C@H](CCn3cc([C@H](O)c4ccccc4)nn3)O[C@@]3(C(=O)N(C)c4ccccc43)[C@@H]2C)cc1 . Value?
-0.254

Request the reported z-score associated with COc1ccc(C(O)C2C=CC3C(=O)N(C)C(=O)C3N2NC(=O)OC(C)(C)C)c2ccccc12 (stereo unspecified)
0.577

Quick check: z-score of CCN(CC)c1ccc(N2CC=CC34O[C@@H]5/C=C\CCC(C)OC(=O)C5[C@H]3C(=O)N(CCCCCO)[C@@H]4C2=O)cc1 (stereo partly specified) ?
-0.399

Tell me the measured z-score of CC(=O)NCCCC[C@@H]1NC(=O)[C@H]2C[C@@H](C(=O)O)[C@@H](c3ccc(O)cc3)N2C1=O , please.
2.72

Item COc1ccc([Si](C)(C)[C@@H]2[C@@H](CCn3cc([C@H](O)c4ccccc4)nn3)O[C@]3(C(=O)N(Cc4cccc(N5CCC5=O)c4)c4ccccc43)[C@H]2C)cc1 has what recorded z-score?
2.14

----------
I'd be grateful if you could share measured composite z-score for these entries.
- assay_protocol: probe aDKK1 binding to arrayed compounds – biochemical, biotinylated probe, 635/667 nm fluorescence, primary screen (AID 1099);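 further: score merges 667nm spot fluorescence with signal to noise across triplicate slides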
- measurement_parameters: small-molecule microarray, higher = more signal
// print number alone

Return reported composite z-score; argument: C=CCNC(=O)[C@H]1[C@@H]2C(=O)O[C@@H](c3ccccc3)[C@@H](c3ccccc3)N2[C@@H](c2ccc(OCCO)cc2)[C@]12C(=O)Nc1ccc(C#CCC(C(=O)OC)C(=O)OC)cc12
0.313

Which measured composite z-score value corresponds to COc1ccc(C#Cc2ccc3c(c2)[C@]2(C(=O)N3)[C@H](c3ccc(O)cc3)N3[C@H](c4ccccc4)[C@H](c4ccccc4)OC(=O)[C@H]3[C@@H]2C(=O)N2CCc3cc(OC)c(OC)cc3C2)cc1 ?
-0.157

What composite z-score value was documented for this compound, CCCCCCc1nc(-c2ccc(-c3ccc(Cl)c(Cl)c3)o2)c(C)c2c1[Si](C(C)C)(C(C)C)OC2 ?
-0.233

Recorded composite z-score of O=C1O[C@@H](c2ccccc2)[C@@H](c2ccccc2)N2[C@@H](c3ccccc3OCCO)[C@]3(C(=O)Nc4ccc(C#CC5(O)CCCCCC5)cc43)[C@@H](C(=O)N3CCN(c4ncccn4)CC3)[C@H]12 , please.
-0.125

I would be grateful if you could share the reported composite z-score for CCOC(=O)C1=C[C@@H](C(C)C)N(S(=O)(=O)c2ccc(C)cc2)[C@H]1c1ccccc1F .
0.398

Given the entry C=C(C)[C@@H]1CC=C(C(O)C2C=CC3C(=O)NC(=O)C3N2Nc2ccc(Cl)cc2Cl)CC1 (some centres undefined) , report its measured composite z-score.
0.802

Recorded composite z-score for COCCOC(=O)N1C(=O)[C@@]2(c3cc(C#CCCO)ccc31)[C@H](c1ccc(OCCO)cc1)N1[C@H](c3ccccc3)[C@H](c3ccccc3)OC(=O)[C@H]1[C@@H]2C(N)=O , please?
0.0909

Quick check: composite z-score of COc1cc2c(cc1O)C(c1cccs1)N(Cc1cccc(OC(F)(F)F)c1)CC2 (centres undefined) ?
-0.293

Fill blank: measured composite z-score of the compound C=C(C(=O)CC[C@H](OC(C)=O)c1ccccc1OCCO)C(C)C is ____.
-0.287

What value of composite z-score has been recorded for this entry: CC(c1ccccc1)C(O)C1C=CC2C(=O)N(C)C(=O)C2N1NC(=O)OC(C)(C)C (centres undefined)
0.354

State the recorded composite z-score for this entry: C=C(/C(=C/C[C@H](OC(=O)c1ccncc1)c1ccc(OCCO)cc1)c1cc(C(=O)OC)ccc1OC)C(C)C
0.031

Report composite z-score for C[N+](C)(C)CCCCCCNC(=O)[C@H]1C[C@H]2C(=O)N[C@@H](Cc3ccccc3)C(=O)N2[C@H]1c1cccc(OCCO)c1 please.
-0.0429

Entry [N-]=[N+]=NCc1ccccc1[C@@H]1OC(c2ccc(OCCCO)cc2)=N[C@]1(CCS(=O)(=O)c1ccccc1)C(=O)N1CCOCC1 : reported composite z-score = ?
1.27

For O=C1O[C@@H](c2ccccc2)[C@@H](c2ccccc2)N2[C@@H](c3ccccc3OCCO)[C@]3(C(=O)Nc4ccccc43)[C@@H](C(=O)O)[C@H]12 , what is its reported composite z-score?
-0.124

----------
- assay_protocol: compounds binding Alexa647 anti-His antibody – biochemical, small-molecule microarray, 635 nm fluorescence, artefact control for SMM control protein annotation, primary screen (AID 1128);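 further: score merges feature fluorescence with signal-to-noise for each printed compound spot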
- measurement_parameters: higher = more signal
Kindly supply the reported composite z-score values for the records listed here.

Please look up its composite z-score: COc1ccc([C@H]2OC[C@@H]3CCC(=O)N32)cc1
0.822

Would you mind telling me what composite z-score value was observed for CC1CC/C=C\[C@H]2OC34C=CCN(Cc5ccccc5)C(=O)[C@H]3N(C(C)CO)C(=O)[C@@H]4C2C(=O)O1 (stereo partly drawn) ?
-0.216

Given the molecule COC(=O)[C@@]1(CCC(=O)OC(C)(C)C)N=C(c2ccc(OCCCO)cc2)O[C@H]1c1ccccc1 , what is its reported composite z-score?
0.467

Reported composite z-score for COc1cc(CO)cc(I)c1O[C@H]1C=C(C(=O)NCCO)C[C@@H](N(C(=O)c2cc3ccccc3oc2=O)C2CCCCCC2)[C@@H]1O : what is it?
0.0786

Look up composite z-score: C=CC[C@]12N=C(c3ccc(OCCCO)cc3)O[C@H]1c1ccccc1N(CCS(=O)(=O)c1ccccc1)C2=O
1.66

Please give the measured composite z-score for this molecule: CCCCN1CC=CC23O[C@@H]4/C=C\CCCOC(=O)C4[C@H]2C(=O)N(CCCCCO)[C@@H]3C1=O (stereo partly drawn)
0.688

Field request: composite z-score | item: CCOC(=O)C1=CCC(c2ccc(F)cc2)N(S(=O)(=O)c2ccc(C)cc2)C1 (stereo not drawn)
-0.596

Looking for the measured composite z-score of O=C1NC(=O)C2C1C=CC(C(O)C=Cc1ccc([N+](=O)[O-])cc1)N2Nc1ccc(Cl)cc1Cl (stereo not drawn) , can you help?
1.72

Where do the numbers come from? From PubChem BioAssay.
